Measured TGI, listed per entry.
Tested on: NCI-H522 lung
protocol: NCI tumour cell line growth inhibition, 48 h
The answer is to be given in µM; state only the numeric part.

CC(=O)OCC1OC(SC2=NC(=O)/C(=C/c3ccccc3)S2)C(OC(C)=O)C(OC(C)=O)C1OC(C)=O (stereo not given) ... 80.6

Here is another molecule to look at.
Req: Indicate its recorded TGI; the molecule in question is COc1ccc(/C=C\c2cc(OC)c(OC)c(OC)c2)cc1OCC(=O)Nc1nc2ccccc2s1
Resp: 0.338

---

Measured TGI, listed per entry.
System: MALME-3M melanoma
protocol: NCI tumour cell line growth inhibition, 48 h
The answer is to be given in µM; state only the numeric part.

N#Cc1ccc(C2Oc3ccc(Cl)cc3C=C2[N+](=O)[O-])cc1 (stereo not given) ... 4.79

Req: System MALME-3M melanoma. Read-out TGI. Item COc1ccc(/C=N\NC(=O)c2ccc3nc(-c4ccc(Cl)cc4)[nH]c3c2)cc1 . Report value.
Resp: 3.63

---

Test system: BT-549 breast
protocol: NCI tumour cell line growth inhibition, 48 h
measured_quantity: TGI (µM)
The answer is to be given in µM; state only the numeric part.

COc1cc(C(=O)O/N=C(\N)Cc2cccc3ccccc23)cc(OC)c1OC ... 29.7
CC(C)C1=C(Cc2ccccc2)C(=O)O/C1=C\c1ccc(O)c(Cl)c1 ... 36.7
O=C(Cc1ccc(Nc2ccnc(C(F)(F)F)c2)cc1)Nc1cc(Cl)ccc1O ... 22.5

Here is another compound to look at.
Req: Indicate its recorded TGI; the compound in question is O=C(CC(c1ccccc1)C(C(=O)c1ccncc1)C(CC(=O)c1ccncc1)c1ccccc1)c1ccncc1 (stereo unspecified)
Resp: 57.3

---

System: M14 melanoma
protocol: NCI tumour cell line growth inhibition, 48 h; in the data active = GI50 below about 0.43 µM; inactive = the rest
Answer with one of the outcomes given here: t = active, f = inactive

Reference set (5 entries):
CC(C)C[CH2][Ge]([CH2]CC(C)C)([CH2]CC(C)C)[CH2]CC(C)C ... f
COc1ccc2c(c1)C(=O)c1c-2c(N2CCN(C(=O)CNCCN(C)C)CC2)nc2ccccc12 ... f
O=C(O)c1cn(C2CC2)c2cc(N3CCNCC3)c(F)cc2c1=O ... f
CN(C)c1ccc(Nc2c3ccccc3nc3cc(NC(=O)CCN4CCCC4)ccc23)cc1 ... f
CCCCCCCCCCC[C@@H](C[C@H]1OC(=O)[C@H]1CCCCCC)OC(=O)[C@@H](CC(C)C)NC=O ... f

Could you now consider this next compound?
Req: Could you kindly confirm the outcome this assay logged for O=C(Cc1csc2nc(-c3ccc(Br)cc3)cn12)N/N=C/c1ccc(Cl)cc1Cl ?
Resp: f

---

Tested on: OVCAR-4 ovarian
protocol: NCI tumour cell line growth inhibition, 48 h
Measured TGI, listed per entry.
The answer is to be given in µM; state only the numeric part.

CCOC(=O)c1ccccc1SC(C[N+](=O)[O-])c1ccccc1 (stereo not given) ... 25.5

Req: Indicate its recorded TGI; the molecule in question is C[C@@H](Oc1cc(-n2cnc3ccc(OCC4CCN(C)CC4)cc32)sc1C(N)=O)c1ccccc1Cl
Resp: 4.81

---

Measured TGI, listed per entry.
Tested on: HCT-15 colon
protocol: NCI tumour cell line growth inhibition, 48 h

Reference set (5 entries):
Oc1ccc2ccccc2c1N=Nc1ccc(Cl)cc1 ... > 100 µM
CC(=O)c1[nH]c(Nc2ccc(C)cc2)c(C(=S)Nc2ccccc2)c1N ... 46.1 µM
O=S1c2ccccc2NC(c2ccc3ccccc3c2)CC1c1ccccc1 (stereo unspecified) ... 54 µM
OCC1OC(c2ccccc2)CC1O (stereo unspecified) ... > 100 µM
O=C(Oc1ccc2c(-c3ccccc3)c(C(=O)Nc3ccc(Cl)cc3)c(=O)oc2c1)c1ccccc1 ... > 100 µM

Here is another molecule to look at.
Req: System HCT-15 colon. Read-out TGI. Item O=C1CC(c2ccsc2)c2snc(-c3ccc(Cl)cc3)c2N1 (stereo unspecified) . Report value.
Resp: > 100 µM
